Experiment: Intrinsic clearance in CD1 mouse liver microsomes at 1 uM
Type: ADME, Microsome
Details: read-out: CLH
Listing: microsomal CLint at 1 µM of selected compounds

compound	microsomal CLint at 1 µM, µL/min/mg
CNC(=O)O[C@@H](CC(C)C)c1nc([C@H]2OC(=O)/C=C/C/C(C)=C/[C@@H](O)[C@@H](C)\C=C(C)/C=C(C)\C=C\[C@@H](O)[C@H](C)[C@H](OC)/C(C)=C/C=C/[C@@H]2C)cs1 [ARCHAZOLID B]	495
CNC(=O)O[C@@H](CC(C)C)c1nc([C@H]2OC(=O)C/C=C/C(C)=C/[C@@H](O)[C@@H](C)\C=C(C)/C=C(C)\C=C\[C@@H](O)[C@H](C)[C@H](OC)/C(C)=C/C=C/[C@@H]2C)cs1 [ARCHAZOLID F]	271

====

// endpoint pKi / system Adenosine receptor A3 (Homo sapiens, UniProt P0DMS8)
pKi: −log10 of the molar value.

query-smiles	prefix-operator	pKi
CNC(=O)O[C@@H](CC(C)C)c1nc([C@H]2OC(=O)C/C=C/C(C)=C/[C@@H](O)[C@@H](C)\C=C(C)/C=C(C)\C=C\[C@@H](O)[C@H](C)[C@H](O)/C(C)=C/C=C/[C@@H]2C)cs1	=	5.86
CNC(=O)O[C@@H](CC(C)C)c1nc([C@H]2OC(=O)[C@@H](C)/C=C/C(C)=C/[C@@H](O)[C@@H](C)\C=C(C)/C=C(C)\C=C\[C@@H](O)[C@H](C)[C@H](OC)/C(C)=C/C=C/[C@@H]2C)cs1	=	5.94
CNC(=O)O[C@@H](CC(C)C)c1nc([C@H]2OC(=O)[C@H](C)/C=C/C(C)=C/[C@@H](O)[C@@H](C)\C=C(C)/C=C(C)\C=C\[C@@H](O)[C@H](C)[C@H](OC)/C(C)=C/C=C/[C@@H]2C)cs1	≤	5.00
CNC(=O)O[C@@H](CC(C)C)c1nc([C@H]2OC(=O)/C(C)=C/C/C(C)=C/[C@@H](O)[C@@H](C)\C=C(C)/C=C(C)\C=C\[C@@H](O)[C@H](C)[C@H](OC)/C(C)=C/C=C/[C@@H]2C)cs1	=	6.01
CNC(=O)O[C@@H](CC(C)C)c1nc([C@H]2OC(=O)/C=C/C/C(C)=C/[C@@H](O)[C@@H](C)\C=C(C)/C=C(C)\C=C\[C@@H](O)[C@H](C)[C@H](OC)/C(C)=C/C=C/[C@@H]2C)cs1	=	5.93
CNC(=O)O[C@@H](CC(C)C)c1nc([C@@H](O)[C@@H](C)/C=C/C=C(\C)[C@@H](OC)[C@@H](C)[C@H](O)/C=C/C(C)=C\C(C)=C/[C@H](C)[C@H](O)/C=C(C)/C=C/CC(=O)OC)cs1	=	5.79
CO[C@@H]1/C(C)=C/C=C/CCOC(=O)C/C=C/C(C)=C/[C@@H](O)[C@@H](C)\C=C(C)/C=C(C)\C=C\[C@@H](O)[C@@H]1C	=	6.22
CO/C1=C\C(C)=C\[C@@H](C)[C@@H](O)[C@@H](C)C/C(C)=C/C=C/[C@H](OC)[C@@H]([C@@H](C)[C@@H](O)[C@H](C)[C@@]2(O)C[C@@H](O)[C@H](C)[C@@H](C(C)C)O2)OC1=O	=	5.97
CNC(=O)O[C@@H](CC(C)C)c1nc([C@H]2OC(=O)C/C=C/C(C)=C/[C@@H](O)[C@@H](C)\C=C(C)/C=C(C)\C=C\[C@@H](O)[C@H](C)[C@H](OC)/C(C)=C/C=C/[C@@H]2C)cs1	=	6.07
